Each recorded value in this set is attributed to PubChem BioAssay (NCATS).

- measurement-target: Peroxisome proliferator-activated receptor gamma (Homo sapiens) (UniProt P37231)
- Sequence (P37231 whole entry, looked up): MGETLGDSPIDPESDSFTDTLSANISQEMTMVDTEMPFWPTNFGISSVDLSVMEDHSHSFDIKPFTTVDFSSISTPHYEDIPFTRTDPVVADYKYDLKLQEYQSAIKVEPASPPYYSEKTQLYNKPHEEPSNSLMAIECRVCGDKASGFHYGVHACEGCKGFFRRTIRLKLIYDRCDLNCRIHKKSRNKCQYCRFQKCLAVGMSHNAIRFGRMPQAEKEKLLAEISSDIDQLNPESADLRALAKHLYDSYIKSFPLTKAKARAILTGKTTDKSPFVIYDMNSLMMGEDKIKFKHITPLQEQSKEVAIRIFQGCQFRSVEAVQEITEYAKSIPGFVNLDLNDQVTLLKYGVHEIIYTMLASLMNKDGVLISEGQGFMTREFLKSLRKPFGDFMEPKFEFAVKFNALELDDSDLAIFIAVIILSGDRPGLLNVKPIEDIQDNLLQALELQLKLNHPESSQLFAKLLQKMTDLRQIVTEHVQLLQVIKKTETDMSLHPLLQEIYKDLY
- assay-method-text: qHTS assay for small molecule antagonists of peroxisome proliferator-activated receptor gamma signaling (AID 588537);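 also: reporter cells co-stimulated with 50 nM rosiglitazone agonist during compound treatment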
- test-context: HEK293 PPARg-UAS-bla, beta-lactamase ratio, antagonist mode; series mostly up to 76.8 µM
Results filed as inconclusive are left out. Calls of active or inactive are those of the source. Calls follow the shape of the dose curve; as a rule, active = well fitted inhibition curve with a large enough effect in the signal ratio, with a control signal flat (not every such curve was filed as active); inconclusive = small, poorly fitted or top-dose-only effect, or effect the other way, or a change in a side signal; inactive = flat fitted curve, though single readings scatter; the % refers to the signal ratio.
// classify into active, inactive

compound	class-name
CC(C)CCCCCOC(=O)CS	inactive

Problem: Which result was noted for this compound in the test: CCCCNS(=O)(=O)c1ccccc1
Solution: inactive

Problem: Identify the outcome logged in this assay for the compound shown: C[Si]1(C)O[Si](C)(C)O[Si](C)(C)O[Si](C)(C)O[Si](C)(C)O1
Solution: inactive
